Assign folding stability dG to each entry below.
B1: EEHEE_rd4_0003 (parent)
chain: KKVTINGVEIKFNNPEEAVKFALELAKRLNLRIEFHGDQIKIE

Variants of: B1
test.summary: folding stability dG (cDNA display proteolysis); higher = more stable
test.settings: PBS, room temperature
Reply with just the number (in kcal/mol).

Q: Indicate its recorded folding stability dG; the variant in question is R32L
A: 2.19

Q: Output folding stability dG of E17L
A: 2.56

Q: Recall and state the measured folding stability dG for K41E .
A: 2.1

Q: Given L31F , respond with its folding stability dG.
A: 2.25

Q: Indicate its recorded folding stability dG; the variant in question is F21P
A: 0.505

Q: Hello, please tell me recorded folding stability dG for this one: D38G
A: 2.31

Q: Provide one value: measured folding stability dG of I40E
A: 1.44

Q: State, in one line, measured folding stability dG of F21A
A: 1.85

Q: Read off the recorded folding stability dG for G7H
A: 1.89

Q: Give folding stability dG for the following variant: V8W
A: 2.75

Q: Output folding stability dG of N14P
A: 2.4

Q: Retrieve folding stability dG measured for E43C and print it.
A: 3.85

Q: Give folding stability dG for L31V
A: 2.56

Q: Check the records and state folding stability dG for N13L
A: 2.72

Q: Write down folding stability dG measured for item L29A
A: 1.74

Q: State its folding stability dG: Q39F
A: 2.91

Q: Quick one: give measured folding stability dG for I10A
A: 1.65

Q: Give folding stability dG for the following variant: L23Y
A: 2.43

Q: In one line, give reported folding stability dG of the entry N13W .
A: 2.6

Q: Return folding stability dG (reported value) for this variant: T4P
A: 1.76

Q: Report measured folding stability dG; entry is T4V
A: 2.94

Q: Respond only with folding stability dG recorded for A18E
A: 1.47

Q: Give the reported value of folding stability dG for this record: V19T
A: 2.22

Q: Look up and state reported folding stability dG for T4M
A: 2.74

Q: Specify reported folding stability dG for the variant shown: V8H
A: 2.53

Q: Return folding stability dG for the following variant: F35H
A: 1.88

Q: # return recorded folding stability dG for entry G37Y
A: 2.41

Q: Item F12H : provide folding stability dG
A: 1.45

Q: Write down folding stability dG measured for item L25P
A: -0.052

Q: Answer with the recorded folding stability dG of E9S only.
A: 2.58

Q: Tell me measured folding stability dG for D38H please.
A: 2.25

Q: Identify measured folding stability dG associated with L25K
A: 0.98

Q: Assign folding stability dG to the following record: L25V
A: 2.24

Q: Give recorded folding stability dG. E24Y
A: 2.73

Q: Supply reported folding stability dG belonging to this variant: L25F
A: 2.44

Q: Determine its reported folding stability dG: P15L
A: 2.9

Q: Provide one value: measured folding stability dG of G37H
A: 2.42

Q: Retrieve folding stability dG measured for H36Q and print it.
A: 2.56

Q: Given L23F , respond with its folding stability dG.
A: 2.46

Q: Provide measured folding stability dG value, entry: I10N
A: 1.5

Q: Give reported folding stability dG value for E9P
A: 2.3

Q: Report folding stability dG for L23S
A: 1.88

Q: Please give the documented folding stability dG of F35T
A: 1.82

Q: Give reported folding stability dG value for H36I
A: 2.93

Q: Quote folding stability dG reported for N14D please.
A: 2.56

Q: Provide folding stability dG value for the following variant: V19P
A: 1.04
